Some molecules, each annotated with its measured melting point.

>  <molecule>
COc1ccc(C(=O)NC(=O)CCl)cc1

>  <melting point>
160 to 162 °C

$$$$
>  <molecule>
CC1CNc2ccccc2CN1C(=O)OC(C)(C)C (configuration not stated)

>  <melting point>
158 to 160 °C

$$$$
>  <molecule>
c1ccc2c(c1)CC(n1ccnc1)CN2 (configuration not stated)

>  <melting point>
110 to 112 °C

$$$$
>  <molecule>
ClCc1cn2cccnc2n1

>  <melting point>
125 to 127 °C

$$$$

Query: In one line, give reported melting point of the entry CC1C(=O)Nc2cc(C(=O)O)ccc2N1C (configuration not stated) .
Result: 289 to 291 °C

Query: In one line, give reported melting point of the entry CC(NC(=O)Nc1ccccc1)C(=O)O (configuration not stated) .
Result: 180 to 182 °C

Query: In one line, give reported melting point of the entry CC(C)(C)OC(=O)N1CCN(C(=O)C2CCCN2)CC1 (configuration not stated) .
Result: 219 to 221 °C

Query: In one line, give reported melting point of the entry `CNC(=O)c1cnc(C)[nH]c1=O` .
Result: 319 to 321 °C

Query: In one line, give reported melting point of the entry `O=C(O)c1ccn(-c2cccc(C(F)(F)F)c2)n1` .
Result: 155 to 157 °C

Query: In one line, give reported melting point of the entry `COC(=O)c1c(-c2ccccc2Cl)csc1N` .
Result: 92 to 96 °C

Query: In one line, give reported melting point of the entry `Cc1cc(C(=O)CCl)c(C)n1-c1cccc(S(=O)(=O)N2CCOCC2)c1` .
Result: 171 to 173 °C

Query: In one line, give reported melting point of the entry `COc1cccc(CNc2ccc(F)cc2)c1O` .
Result: 76 to 78 °C

Query: In one line, give reported melting point of the entry `O=C(O)c1cccc(S(=O)(=O)NCc2cccs2)c1` .
Result: 223 to 225 °C

Query: In one line, give reported melting point of the entry `Cc1ccc(S(=O)(=O)NCC(=O)O)cc1C` .
Result: 123 to 125 °C

Query: In one line, give reported melting point of the entry `O=C(OCc1ccccc1)N1CCC(S(=O)(=O)Cl)CC1` .
Result: 62 to 64 °C

Taken from a melting point compilation (Tetko et al.).
